Biological target: T1, S4 (sTn-MUC1) (PAPGSTAPPAHGVT(Neu5Ac-α(2-6)-GalNAc)SAPDTRPAPG-OH)
T1 peptide: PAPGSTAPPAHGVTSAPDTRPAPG
Test: glycopeptide array
Property Measured: EC50 (µg/mL)
Give the value, in units of µg/mL, as a plain number.

Identify the reported EC50 for the following entry. 86 (antibody, V domains shown) VH: QVQLVQSGAEVKKPGASVKVSCKASGYPFINYYIQWVRQAPGQGLEWMGVINPFDGSTNYAQKFQGRVTVTRDTSTSTVFMDLSSLRSEDTAVYYCARDNMIGYVLFDYWGQGTLVTVSS
0.074

Return EC50 for the following binder: 13 (antibody, V domains shown) VH: QVQLVQSGAEVKKPGASLKVSCKASGYTFTNYYIQWVRQAPGQGLEWMGVINPYDGSTNYAQKFQGRVTLTRDTSTTTVYMELSSLRSDDTAVYYCARDYMIGYVVFDYWGQGTLVTVSS
0.156

Give the reported EC50 for this binder. 82 (antibody, V domains shown) VH: QVQLVQSGAEVKKPGASVKVSCKASGYTFTSYYIHWVRQAPGQGLEWMGVINPYDSSTNYAQKFQGRVTMTRDTSTSTVFMDLSSLRSEDTAVYYCARDNMIGYVLFDYWGQGTLVTVSS
0.173

Supply reported EC50 belonging to this binder: 90 (antibody, V domains shown) VH: QVQLVQSGAEVKKPGASVKVSCKASGYTFINHYIHWVRQAPGQGLEWMGVINPFDGSTNYAQKFQGRVTVTRDTSTSTVFLDLSSLRSEDTAVYYCARDNMIGYVLFDYWGQGTLVTVSS
0.126

These entries and their values trace back to patent US20230250190A1.
